# assaySystem: T1, hIL-18BP-hFc (human, UniProt O95998 31-194, limits assumed)
# T1 sequence (looked up): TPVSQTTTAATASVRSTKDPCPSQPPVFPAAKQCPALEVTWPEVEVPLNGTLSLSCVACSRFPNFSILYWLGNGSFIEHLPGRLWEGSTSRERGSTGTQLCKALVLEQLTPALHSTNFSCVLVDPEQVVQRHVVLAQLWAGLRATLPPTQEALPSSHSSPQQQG
# experimentalDetails: cell-based or functional assay
readoutKind: EC50 Fold Change (+BP/-BP), PBMC assay (hIFNγ release) (fold)
Give the quantity in fold, number only.

IL-18 variant polypeptide M21 (ligand) YFPKLRSKLSVIRNLNDQVLFIDQGNRPLFEDMTDSDCRDNAPRTIFIISMYKSSSTRGMAVTISVKCEKISTLSCENKIISFKEMNPPDGIKDTKSDIIFFQSSVPGHDNKMQFESSSYEGYFLACEKERDLFKLILKKEDELGDRSIMFTVQNED: 1.09
IL-18 variant polypeptide M15 (ligand) YFPKLRSKLSVIRNLNDQVLFIDQGNRPLFEDMTDSDCRDNAPRTIFIISMYKSSYTRGMAVTISVKCEKISTLSCENKIISFKEMNPPDGIKDTKSDIIFFQRSVPGHDNKMQFESSSYEGYFLACEKERDLFKLILKKEDELGDRSIMFTVQNED: 0.73

Please find the next binder below.
Data request: Item under review: IL-18 variant polypeptide M36 (ligand) YFPKLSSKLSVIRNLNDQVLFIDQGNRPLFEDMTDSDCRDNAPRTIFIISMYKASDQRGMAVTISVKCEKISTLSCENKIISFKEMNPPDGIKDTKSDIIFFQRSVPGHDNKMQFESSSYEGYFLACEKERDLFKLILKKEDELGDRSIMFTVQNED . Reported EC50 Fold Change (+BP/-BP), PBMC assay (hIFNγ release)?
Data returned: 0.73
